# System: SF-539 CNS
# Procedure summary: NCI tumour cell line growth inhibition, 48 h
Measured parameter: GI50

Compound | GI50
Cc1ccncc1C(N)=O | > 100 µM
C[C@@H]1O[C@@H](O[C@@H]2[C@@H](O)[C@H](OCCc3ccc(O)c(O)c3)O[C@H](CO)[C@H]2OC(=O)/C=C/c2ccc(O)c(O)c2)[C@H](O)[C@H](OC2OC[C@](O)(CO)[C@H]2O)[C@H]1O (stereo not given in full) | > 100 µM
CCOC(=O)c1cc2c(cc1Cl)SC(=Nc1ccccc1)N(S(=O)(=O)c1ccc(Br)s1)S2(=O)=O | 14.3 µM
C[CH2][Hg][S]c1ccccc1C(=O)O | 1.7 µM

Let us move to another entry and its GI50.
q: Specify measured GI50 for `COc1cc(/C=C/c2ccc3c(Br)cc(Br)c(O)c3n2)ccc1O` .
a: 2.29 µM

All values here come from PubChem BioAssay (NCI).
